test system: SNB-19 CNS; assay: NCI-60 one-dose screen, 48 h; conditions: 10 µM unless noted
About 83,000 compounds went through this panel and 20% of them were active in at least one assay; those are over-represented in the sample as a whole. Activity calls are given as the source filed them. How the source made its calls: active means growth percent below 10; inactive means the rest.
Possible outcomes: active, inactive

1. OCCOSCCO; inactive
2. COC(=O)C(=[N+]=[N-])C(=O)c1ccc([N+](=O)[O-])o1; inactive
3. C[n+]1ccccc1C[n+]1ccccc1; inactive
4. CCOC(=O)NC(/C=C/c1ccccc1)NC(=O)OCC; inactive
5. COC1=CC(=O)c2c(O)c3c(c(O)c2C1=O)CC(C)(O)OC3 (centres undefined); active
6. O=C(Nc1ccc(Cl)c(Cl)c1)OCc1ccco1; inactive
7. CCCCCCC1N=C(N)N=C(N)N1c1cccc(Cl)c1 (centres undefined); inactive
8. Clc1ccccc1C(c1ccccc1)(c1ccccc1)n1ccnc1; inactive
9. O=C1C(=O)c2cccnc2-c2ncccc21; active
10. CCN(CC)CCNC(Cc1ccccc1)c1ccc(OCc2ccccc2)cc1 (centres undefined); inactive
11. NC(=Nc1nc(-c2ccccn2)cc2ccccc12)c1ccccn1; inactive
12. CC[n+]1ccc(Nc2ccc(NC(=O)c3ccc(Nc4cc[n+](CC)c5ccc([N+](=O)[O-])cc45)cc3)cc2)cc1; inactive
13. CCCCCCCCCCCC[N+]1(CCCCCCCCCCCC)CCCC(C)C1 (centres undefined); active
14. O=[N+]([O-])c1ccc(N2CCN(Cc3ccccc3)CC2)c2c1no[n+]2[O-]; inactive
15. CCN(CC)CC(O)c1cc(-c2ccc(Cl)cc2)nc2cc(Cl)ccc12 (centres undefined); inactive
16. NC(=S)Nc1ccc2c(c1)Cc1ccccc1-2; inactive
17. CC(C)=C1C=C2CC[C@@H]3[C@](C)(CCC[C@@]3(C)C(=O)O)[C@H]2CC1; inactive
18. CN=C(N)N/N=C(\C)c1ccc2c(c1)Cc1ccccc1-2; active
19. CCCCCCCCCCCC1=NCCCN1CCCC; inactive
20. O=[N+]([O-])C=C(c1ccccc1)c1ccccc1; inactive
21. CC12CCC(O)CC1=CCC1C2CCC2(C)C3=NN=CC3CC12 (centres undefined); inactive
22. Oc1c(Cl)cc(Cl)cc1C=NCC1CCC(CN=Cc2cc(Cl)cc(Cl)c2O)CC1 (centres undefined); inactive
23. CCN(CC)c1ccc(/C=C\C(=O)c2ccc(NC(C)=O)cc2)cc1; inactive
24. Cc1oc2c(C)c3oc(=O)cc(C)c3cc2c1CCl; inactive
